The measured values listed here are drawn from patent US20220025021A1.

Target: HIV-1 Env of pseudovirus BB1012-11.TC21 (HIV-1)
Assay: cell-based or functional assay
Recorded neutralization IC80 for the following binders
The reply should contain only the number, in µg/mL.

Example results:
Binder	Assay metric	Result unit	Test result
MS-81 (antibody, V domains shown) VH: QVQLVQSGPEVRKPGTSVKVSCKAPGNTLKTYDLHWVRSVPGQGLQWMGWISHEGDKKVIVERFKAKVTIDWDRSTNTAYLELSGLTSGDTAVYYCAKGSKHRLRDYALYDDDGALNWAVDVDYLSNLEFWGQGTAVTVSS VL: DFVLTQSPHSLSVTPGESASISCKSSHSLIHGDRNNYLAWYVQKPGRSPQLLIYLASSRASGVPDRFSGSGSDKDFTLKISRVETEDVGTYYCMQGRESPWTFGQGTKVDIKR	neutralization IC80	µg/mL	0.102
MS-78 (antibody, V domains shown) VH: QVQLVQSGPEVRKPGTSVKVSCKAPGNTLKTYDLHWVRSVPGQGLEWMGWISHEGDKKVIVERFKAKVTIDWDRSTNTAYLQLSGLTSGDTAVYYCAKGSKHRLRDYALYDDDGALNWAVDVDYLSNLEFWGQGTAVTVSS VL: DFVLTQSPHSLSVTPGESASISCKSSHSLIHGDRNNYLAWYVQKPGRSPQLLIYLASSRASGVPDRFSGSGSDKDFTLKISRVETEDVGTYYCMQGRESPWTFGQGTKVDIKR	neutralization IC80	µg/mL	0.105
MS-91 (antibody, V domains shown) VH: QVQLVQSGPEVRKPGTSVKVSCKASGYTLKTYDLHWVRSVPGQGLQWMGWISHEGDKKVIVERFKAKVTIDWDRSTNTAYLQLSGLTSGDTAVYYCAKGSKHRLRDYALYDDDGALNWAVDVDYLSNLEFWGQGTAVTVSS VL: DFVLTQSPLSLSVTPGESASISCKSSHSLIHGDRNNYLAWYVQKPGRSPQLLIYLASSRASGVPDRFSGSGSDTDFTLKISRVETEDVGTYYCMQGRESPWTFGQGTKVDIKR	neutralization IC80	µg/mL	0.17
MS-83 (antibody, V domains shown) VH: QVQLVQSGPEVRKPGTSVKVSCKAPGNTLKTYDLHWVRSVPGQGLQWMGWISHEGDKKVIVERFKAKVTIDWDRSTNTAYLQLSGLTSGDTAVYYCAKGSKHRLRDYALYDDEGALNWAVDVDYLSNLEFWGQGTAVTVSS VL: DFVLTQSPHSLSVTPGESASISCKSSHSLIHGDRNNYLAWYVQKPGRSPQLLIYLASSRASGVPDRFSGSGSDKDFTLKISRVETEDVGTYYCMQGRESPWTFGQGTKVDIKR	neutralization IC80	µg/mL	0.082

The binder listed as MS-85 (antibody, V domains shown) VH: QVQLVQSGPEVRKPGTSVKVSCKAPGNTLKTYDLHWVRSVPGQGLQWMGWISHEGDKKVIVERFKAKVTIDWDRSTNTAYLQLSGLTSGDTAVYYCAKGSKHRLRDYALYDDDGALNWAVDVDYLSNLEFWGQGTAVTVSS VL: DIVLTQSPHSLSVTPGESASISCKSSHSLIHGDRNNYLAWYVQKPGRSPQLLIYLASSRASGVPDRFSGSGSGTDFTLKISRVETEDVGTYYCMQGRESPWTFGQGTKVDIKR shows neutralization IC80 equal to 0.124
